Assignment: determine reported solubility change mitosis (log2) for the given sequences.
System: HeLa Kyoto;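 also: synchronized HeLa Kyoto cells (double thymidine block for G1/S, nocodazole release for mitosis), protein amounts in NP-40 versus SDS lysates quantified by mass spectrometry, three biological replicates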
protocol: solubility change mitosis vs G1/S (difference of NP-40 vs SDS log2 ratios) (log2 ratio difference); higher = more soluble in mitosis

Find solubility change mitosis (log2) (HeLa Kyoto) for the entry MAASGEPQRQWQEEVAAVVVVGSCMTDLVSLTSRLPKTGETIHGHKFFIGFGGKGANQCVQAARLGAMTSMVCKVGKDSFGNDYIENLKQNDISTEFTYQTKDAATGTASIIVNNEGQNIIVIVAGANLLLNTEDLRAAANVISRAKVMVCQLEITPATSLEALTMARRSGVKTLFNPAPAIADLDPQFYTLSDVFCCNESEAEILTGLTVGSAADAGEAALVLLKRGCQVVIITLGAEGCVVLSQTEPEPKHIPTEKVKAVDTTGAGDSFVGALAFYLAYYPNLSLEDMLNRSNFIAAVSVQAAGTQSSYPYKKDLPLTLF [RBKS]
-0.0848

Find solubility change mitosis (log2) (HeLa Kyoto) for the entry MEPLAAYPLKCSGPRAKVFAVLLSIVLCTVTLFLLQLKFLKPKINSFYAFEVKDAKGRTVSLEKYKGKVSLVVNVASDCQLTDRNYLGLKELHKEFGPSHFSVLAFPCNQFGESEPRPSKEVESFARKNYGVTFPIFHKIKILGSEGEPAFRFLVDSSKKEPRWNFWKYLVNPEGQVVKFWKPEEPIEVIRPDIAALVRQVIIKKKEDL [GPX8]
-0.208

Find solubility change mitosis (log2) (HeLa Kyoto) for the entry MLQKPRNRGRSGGQAERDRDWSHSGNPGASRAGEDARVLRDGFAEEAPSTSRGPGGSQGSQGPSPQGARRAQAAPAVGPRSQKQLELKVSELVQFLLIKDQKKIPIKRADILKHVIGDYKDIFPDLFKRAAERLQYVFGYKLVELEPKSNTYILINTLEPVEEDAEMRGDQGTPTTGLLMIVLGLIFMKGNTIKETEAWDFLRRLGVYPTKKHLIFGDPKKLITEDFVRQRYLEYRRIPHTDPVDYEFQWGPRTNLETSKMKVLKFVAKVHNQDPKDWPAQYCEALADEENRARPQPSGPAPSS [NDNL2]
0.116

Find solubility change mitosis (log2) (HeLa Kyoto) for the entry MALVASVRVPARVLLRAGARLPGAALGRTERAAGGGDGARRFGSQRVLVEPDAGAGVAVMKFKNPPVNSLSLEFLTELVISLEKLENDKSFRGVILTSDRPGVFSAGLDLTEMCGRSPAHYAGYWKAVQELWLRLYQSNLVLVSAINGACPAGGCLVALTCDYRILADNPRYCIGLNETQLGIIAPFWLKDTLENTIGHRAAERALQLGLLFPPAEALQVGIVDQVVPEEQVQSTALSAIAQWMAIPDHARQLTKAMMRKATASRLVTQRDADVQNFVSFISKDSIQKSLQMYLERLKEEKG [ECI1]
0.043

Find solubility change mitosis (log2) (HeLa Kyoto) for the entry MPRDNMASLIQRIARQACLTFRGSGGGRGASDRDAASGPEAPMQPGFPENLSKLKSLLTQLRAEDLNIAPRKATLQPLPPNLPPVTYMHIYETDGFSLGVFLLKSGTSIPLHDHPGMHGMLKVLYGTVRISCMDKLDAGGGQRPRALPPEQQFEPPLQPREREAVRPGVLRSRAEYTEASGPCILTPHRDNLHQIDAVEGPAAFLDILAPPYDPDDGRDCHYYRVLEPVRPKEASSSACDLPREVWLLETPQADDFWCEGEPYPGPKVFP [ADO]
0.0512

Find solubility change mitosis (log2) (HeLa Kyoto) for the entry MAEASSANLGSGCEEKRHEGSSSESVPPGTTISRVKLLDTMVDTFLQKLVAAGSYQRFTDCYKCFYQLQPAMTQQIYDKFIAQLQTSIREEISDIKEEGNLEAVLNALDKIVEEGKVRKEPAWRPSGIPEKDLHSVMAPYFLQQRDTLRRHVQKQEAENQQLADAVLAGRRQVEELQLQVQAQQQAWQALHREQRELVAVLREPE [PMF1]
0.643

Find solubility change mitosis (log2) (HeLa Kyoto) for the entry MANSANTNTVPKLYRSVIEDVINDVRDIFLDDGVDEQVLMELKTLWENKLMQSRAVDGFHSEEQQLLLQVQQQHQPQQQQHHHHHHHQQAQPQQTVPQQAQTQQVLIPASQQATAPQVIVPDSKLIQHMNASNMSAAATAATLALPAGVTPVQQILTNSGQLLQVVRAANGAQYIFQPQQSVVLQQQVIPQMQPGGVQAPVIQQVLAPLPGGISPQTGVIIQPQQILFTGNKTQVIPTTVAAPTPAQAQITATGQQQPQAQPAQTQAPLVLQVDGTGDTSSEEDEDEEEDYDDDEEEDKEKDGAEDGQVEEEPLNSEDDVSDEEGQELFDTENVVVCQYDKIHRSKNKWKFHLKDGIMNLNGRDYIFSKAIGDAEW [GTF2A1]
0.475

Find solubility change mitosis (log2) (HeLa Kyoto) for the entry MEQLRAAARLQIVLGHLGRPSAGAVVAHPTSGTISSASFHPQQFQYTLDNNVLTLEQRKFYEENGFLVIKNLVPDADIQRFRNEFEKICRKEVKPLGLTVMRDVTISKSEYAPSEKMITKVQDFQEDKELFRYCTLPEILKYVECFTGPNIMAMHTMLINKPPDSGKKTSRHPLHQDLHYFPFRPSDLIVCAWTAMEHISRNNGCLVVLPGTHKGSLKPHDYPKWEGGVNKMFHGIQDYEENKARVHLVMEKGDTVFFHPLLIHGSGQNKTQGFRKAISCHFASADCHYIDVKGTSQENIEKEVVGIAHKFFGAENSVNLKDIWMFRARLVKGERTNL [PHYH]
-0.191

Find solubility change mitosis (log2) (HeLa Kyoto) for the entry MEDPTLYIVERPLPGYPDAEAPEPSSAGAQAAEEPSGAGSEELIKSDQVNGVLVLSLLDKIIGAVDQIQLTQAQLEERQAEMEGAVQSIQGELSKLGKAHATTSNTVSKLLEKVRKVSVNVKTVRGSLERQAGQIKKLEVNEAELLRRRNFKVMIYQDEVKLPAKLSISKSLKESEALPEKEGEELGEGERPEEDAAALELSSDEAVEVEEVIEESRAERIKRSGLRRVDDFKKAFSKEKMEKTKVRTRENLEKTRLKTKENLEKTRHTLEKRMNKLGTRLVPAERREKLKTSRDKLRKSFTPDHVVYARSKTAVYKVPPFTFHVKKIREGQVEVLKATEMVEVGADDDEGGAERGEAGDLRRGSSPDVHALLEITEESDAVLVDKSDSD [PTRF]
0.094

Find solubility change mitosis (log2) (HeLa Kyoto) for the entry MALGLKCFRMVHPTFRNYLAASIRPVSEVTLKTVHERQHGHRQYMAYSAVPVRHFATKKAKAKGKGQSQTRVNINAALVEDIINLEEVNEEMKSVIEALKDNFNKTLNIRTSPGSLDKIAVVTADGKLALNQISQISMKSPQLILVNMASFPECTAAAIKAIRESGMNLNPEVEGTLIRVPIPQVTREHREMLVKLAKQNTNKAKDSLRKVRTNSMNKLKKSKDTVSEDTIRLIEKQISQMADDTVAELDRHLAVKTKELLG [MRRF]
0.328
